Assay: Unbound brain-to-plasma concentration ratio in rat at 2.5 uM incubated for 4 hrs by equilibrium dialysis method
Format: ADME, cell-free
Settings: brain and plasma (unbound), read-out: K(p,uu,brain)
value_type: Kp uu at 4 h, 2.5 µM

[
  {
    "structure_smiles": "C[C@@H]1CN(c2cc(-c3n[nH]c4ccc(OC5(C)CC5)cc34)ncn2)C[C@H](C)O1",
    "value_type": "Kp uu at 4 h, 2.5 µM",
    "obs_value": 0.49
  }
]

a = CC(C)(O)Cn1ncc(Nc2ncc3cc(Cl)c(C4CCN(C5COC5)CC4)cc3n2)c1Cl
b = Cc1c(Nc2ncc3cc(Cl)c(C4CCN(C5COC5)CC4)cc3n2)cnn1C1CC1
c = Cc1c(Nc2ncc3cc(Cl)c(C4CCN([C@@H]5COC[C@@H]5O)CC4)cc3n2)cnn1[C@@H]1CC1(F)F
Ascending by Kp uu at 4 h, 2.5 µM, please. Sort the labels as requested; that list is your answer.
b, a, c
